Cited source for all entries: patent US10259810B2

- MEASURED_ON: ΔF508-CFTR (Homo sapiens, UniProt P13569, DEL508-508)
- Construct: host or cells: CFBE41o-, doxycycline-inducible
- Sequence (P13569 with tags, fused parts or gaps DEL508-508): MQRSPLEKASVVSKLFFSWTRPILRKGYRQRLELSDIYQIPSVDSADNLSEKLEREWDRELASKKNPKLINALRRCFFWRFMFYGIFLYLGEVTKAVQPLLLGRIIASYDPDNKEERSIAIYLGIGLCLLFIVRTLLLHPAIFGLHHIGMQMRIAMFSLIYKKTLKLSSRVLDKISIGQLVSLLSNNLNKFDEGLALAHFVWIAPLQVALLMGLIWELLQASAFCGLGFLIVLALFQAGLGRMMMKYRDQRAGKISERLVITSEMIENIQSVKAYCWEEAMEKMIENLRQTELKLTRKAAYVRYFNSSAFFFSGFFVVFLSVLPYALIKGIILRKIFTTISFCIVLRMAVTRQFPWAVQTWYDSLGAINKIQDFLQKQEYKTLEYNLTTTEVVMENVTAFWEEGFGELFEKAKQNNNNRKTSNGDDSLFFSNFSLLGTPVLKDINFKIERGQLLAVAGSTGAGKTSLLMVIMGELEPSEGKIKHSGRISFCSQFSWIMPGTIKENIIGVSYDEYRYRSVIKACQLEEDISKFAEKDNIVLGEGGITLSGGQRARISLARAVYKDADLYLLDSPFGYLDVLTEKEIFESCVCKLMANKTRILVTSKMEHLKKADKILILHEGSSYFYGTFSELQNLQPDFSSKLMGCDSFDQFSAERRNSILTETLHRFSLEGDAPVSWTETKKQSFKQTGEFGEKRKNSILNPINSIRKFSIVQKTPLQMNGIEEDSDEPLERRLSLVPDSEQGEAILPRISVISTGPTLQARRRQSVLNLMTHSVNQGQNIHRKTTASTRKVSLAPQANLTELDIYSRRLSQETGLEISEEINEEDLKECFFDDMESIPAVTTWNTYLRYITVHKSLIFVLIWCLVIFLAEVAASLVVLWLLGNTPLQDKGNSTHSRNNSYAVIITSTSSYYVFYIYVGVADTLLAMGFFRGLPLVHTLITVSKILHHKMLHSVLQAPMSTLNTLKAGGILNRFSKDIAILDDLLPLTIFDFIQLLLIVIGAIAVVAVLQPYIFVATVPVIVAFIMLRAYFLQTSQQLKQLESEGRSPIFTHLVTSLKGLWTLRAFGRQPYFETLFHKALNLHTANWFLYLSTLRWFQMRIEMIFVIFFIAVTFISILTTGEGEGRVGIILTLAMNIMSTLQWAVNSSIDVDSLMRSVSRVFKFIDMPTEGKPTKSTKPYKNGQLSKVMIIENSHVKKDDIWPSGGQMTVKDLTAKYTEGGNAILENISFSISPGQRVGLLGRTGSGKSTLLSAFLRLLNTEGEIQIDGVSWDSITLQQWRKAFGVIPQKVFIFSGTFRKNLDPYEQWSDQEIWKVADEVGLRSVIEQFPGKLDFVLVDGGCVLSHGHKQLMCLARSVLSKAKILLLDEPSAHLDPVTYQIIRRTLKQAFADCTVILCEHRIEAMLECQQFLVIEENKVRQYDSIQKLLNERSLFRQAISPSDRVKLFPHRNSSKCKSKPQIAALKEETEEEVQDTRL
- ASSAY_OVERVIEW: CFTR cell surface levels using HRP-tagged ΔF508-CFTR expressing CFBE cells, intrinsic corrector capacity
- Type: cell-based
- Set-up: concentration or dose not given beside the values
- CONDITION: HRP-tagged ΔF508-CFTR expressing CFBE41o- cells; compound alone (intrinsic corrector capacity); 20 hours at 33° C.
- Text: Measuring CFTR Cell Surface Levels Using HRP-Tagged ΔF508-CFTR Expressing CFBE Cells The HRP-tagged ΔF508-CFTR cell assay measures the expression of CFTR-ΔF508 at the plasma membrane. […] When HRP-tagged ΔF508-CFTR is present at the plasma membrane, the HRP enzyme activity can be measured. The amount of CFTR-ΔF508 that can be rescued to the plasma membrane is correlated with the amount of functional enzyme that can be measured. […]

{"COMPOUND": "CC1CN(c2ccc(-c3cc(C(=O)NS(C)(=O)=O)nc4c3c(C(C)C)nn4C3CCCCC3)cn2)CC(C)O1 (centres unmarked)", "MEASURED_ON": "ΔF508-CFTR (Homo sapiens, UniProt P13569, DEL508-508)", "% Activation": "224.23%"}
{"COMPOUND": "COCCS(=O)(=O)NC(=O)c1cc(N2CCN(CC(F)(F)F)CC2)c2c(C3CCC3)nn(-c3ccccc3)c2n1", "MEASURED_ON": "ΔF508-CFTR (Homo sapiens, UniProt P13569, DEL508-508)", "% Activation": "133.1%"}
{"COMPOUND": "COCC1CCN(c2cc(C(=O)NS(=O)(=O)C3CCNC3)nc3c2c(C2CCC2)nn3-c2ccccc2)CC1 (centres unmarked)", "MEASURED_ON": "ΔF508-CFTR (Homo sapiens, UniProt P13569, DEL508-508)", "% Activation": "60.58%"}
{"COMPOUND": "COCC1CCN(c2cc(C(=O)NS(=O)(=O)c3cnn(C)c3)nc3c2c(C2CCC2)nn3-c2ccccc2)CC1", "MEASURED_ON": "ΔF508-CFTR (Homo sapiens, UniProt P13569, DEL508-508)", "% Activation": "228%"}
{"COMPOUND": "COc1cc(F)cc(-n2nc(C)c3c(-c4c(F)cc(OC)cc4F)cc(C(=O)NS(C)(=O)=O)nc32)c1", "MEASURED_ON": "ΔF508-CFTR (Homo sapiens, UniProt P13569, DEL508-508)", "% Activation": "187.5%"}
